target: Rho kinase 2 (Homo sapiens)
Sequence (O75116 whole entry): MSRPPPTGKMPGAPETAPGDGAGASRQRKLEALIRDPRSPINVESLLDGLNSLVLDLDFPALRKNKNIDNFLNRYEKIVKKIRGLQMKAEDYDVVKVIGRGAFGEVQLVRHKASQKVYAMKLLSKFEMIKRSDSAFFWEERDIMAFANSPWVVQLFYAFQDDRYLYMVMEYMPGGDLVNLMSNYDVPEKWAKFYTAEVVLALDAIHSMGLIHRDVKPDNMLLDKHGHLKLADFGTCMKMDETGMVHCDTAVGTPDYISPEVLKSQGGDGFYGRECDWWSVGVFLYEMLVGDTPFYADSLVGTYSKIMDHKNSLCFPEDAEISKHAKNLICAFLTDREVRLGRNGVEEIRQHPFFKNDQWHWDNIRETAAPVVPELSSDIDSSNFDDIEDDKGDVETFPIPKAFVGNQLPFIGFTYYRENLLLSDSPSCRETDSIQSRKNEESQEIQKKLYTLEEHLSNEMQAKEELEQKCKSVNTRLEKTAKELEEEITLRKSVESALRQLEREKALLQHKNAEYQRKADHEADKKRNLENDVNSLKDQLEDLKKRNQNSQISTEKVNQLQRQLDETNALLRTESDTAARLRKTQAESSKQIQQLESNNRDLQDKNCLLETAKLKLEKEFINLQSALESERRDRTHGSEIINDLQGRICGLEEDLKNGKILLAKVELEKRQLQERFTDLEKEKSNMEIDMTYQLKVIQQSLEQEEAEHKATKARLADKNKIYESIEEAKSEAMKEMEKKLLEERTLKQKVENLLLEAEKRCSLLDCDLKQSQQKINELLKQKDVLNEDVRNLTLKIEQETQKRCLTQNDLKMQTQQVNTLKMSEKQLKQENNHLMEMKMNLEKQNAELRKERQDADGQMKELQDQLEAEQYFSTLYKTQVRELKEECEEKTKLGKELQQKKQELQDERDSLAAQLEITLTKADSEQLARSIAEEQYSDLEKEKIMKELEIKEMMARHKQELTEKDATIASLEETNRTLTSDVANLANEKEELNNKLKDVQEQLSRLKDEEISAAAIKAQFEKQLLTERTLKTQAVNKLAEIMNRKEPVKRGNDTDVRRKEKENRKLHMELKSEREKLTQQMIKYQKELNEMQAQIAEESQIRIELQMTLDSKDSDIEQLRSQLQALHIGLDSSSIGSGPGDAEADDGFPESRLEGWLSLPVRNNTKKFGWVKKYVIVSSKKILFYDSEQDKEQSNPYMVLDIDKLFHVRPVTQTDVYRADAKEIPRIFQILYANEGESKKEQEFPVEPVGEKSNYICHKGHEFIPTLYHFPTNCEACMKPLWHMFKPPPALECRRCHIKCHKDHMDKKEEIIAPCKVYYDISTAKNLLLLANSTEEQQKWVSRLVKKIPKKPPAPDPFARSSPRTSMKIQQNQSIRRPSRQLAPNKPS
pKi: −log10 of the molar value.
propertyLabel: pKi

CC1=C(C(=O)Nc2ccc3cnccc3c2)C(c2ccc(C(F)(F)F)c(F)c2)n2nc(CN3CCCCC3)cc2N1 (single isomer, unassigned) [Example 97A]    6.30 to 7.30

-- ask Request body: readout pKi, system Rho kinase 2 (Homo sapiens), query CC1=C(C(=O)Nc2ccc3cnccc3c2)C(c2ccc(C(F)(F)F)c(F)c2)n2nc(NC(=O)CN3CCCC3)cc2N1 (single isomer, unassigned) [132B] . Return the value.
-- reply < 6.30

-- ask Entry CC1=C(C(=O)Nc2ccc3cnccc3c2)C(C2Cc3ccccc3C2)n2nc(CO)cc2N1 (single isomer, unassigned) [Example 60A] , system Rho kinase 2 (Homo sapiens): what pKi was measured?
-- reply > 7.30

-- ask Requested read-out pKi, target or system Rho kinase 2 (Homo sapiens), entry CC1=C(C(=O)Nc2ccc3[nH]ncc3c2)C(c2ccc(C(F)(F)F)cc2F)n2nnnc2N1 (single isomer, unassigned) [Example 26B]
-- reply 6.30 to 7.30

-- ask Hello, I am looking for reported pKi with Rho kinase 2 (Homo sapiens) for CC1=C(C(=O)Nc2ccc3cnccc3c2)C(c2ccc(Br)cc2)n2nc(CO)cc2N1 (single isomer, unassigned) [Example 61A] . Could you help?
-- reply > 7.30

-- ask Query for Rho kinase 2 (Homo sapiens): what pKi does the record show for CC1=C(C(=O)Nc2ccc3cnccc3c2)C(C2Cc3ccccc3C2)n2nc(CO)cc2N1 (single isomer, unassigned) [Example 60B] ?
-- reply 6.30 to 7.30
